# system.name: T1, human heparanase (Homo sapiens, UniProt Q9Y251)
# T1 sequence (Q9Y251 36-543): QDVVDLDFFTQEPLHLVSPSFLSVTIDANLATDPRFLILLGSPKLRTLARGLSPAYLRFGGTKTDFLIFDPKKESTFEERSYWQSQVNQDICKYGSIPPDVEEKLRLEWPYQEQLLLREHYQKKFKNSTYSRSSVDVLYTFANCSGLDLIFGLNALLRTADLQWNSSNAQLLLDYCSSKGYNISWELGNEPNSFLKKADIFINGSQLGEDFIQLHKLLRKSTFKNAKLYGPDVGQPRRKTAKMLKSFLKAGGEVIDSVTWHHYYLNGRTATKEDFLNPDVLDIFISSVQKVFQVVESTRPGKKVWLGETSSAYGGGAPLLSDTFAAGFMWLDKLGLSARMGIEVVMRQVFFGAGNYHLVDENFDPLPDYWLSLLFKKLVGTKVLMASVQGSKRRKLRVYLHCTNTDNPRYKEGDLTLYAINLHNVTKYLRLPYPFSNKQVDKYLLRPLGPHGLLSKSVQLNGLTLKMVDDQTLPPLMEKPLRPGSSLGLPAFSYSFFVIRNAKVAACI
# procedure.details: Cross species capture ELISA, human heparanase
# Assay type: binding
property.measured: Binding to heparanase Human (OD units)
One number for each entry, in OD units.

If you can, please state the reported Binding to heparanase Human value of 7B9.1: human anti-heparanase monoclonal antibody, G4λ; VH SEQ ID NO 22, VL SEQ ID NO 24 (antibody, listed as Homo Sapiens, V domains shown) VH: QVQLVESGGGVVQPGRSLRLSCAASGFTFSSYGMHWVRQAPGKGLEWVAVIWYDGSNKYYADSVKGRFTISRDNSKNTLYLQMNSLRAEDTAVYYCAREGAPYSSSDAFDIWGQGTMVTVSS VL: QSVLTQPPSVSGAPGQRVTISCTGSSSNIGANYDVHWYQQLPGTAPKLLIYGDNNRPSGVPDRFSGSKSGTSASLAITGLQAEDEADYYCQSYDSSLSGSVFGGGTKLTVL .
0.68
